Entry source: patent US20120095024A1

Tested on: MCF7 cells
Assay: Cell proliferation assay (ATPlite), MCF-7
Format: cell-based, human
Conditions: Homo sapiens, inhibition of cell proliferation, 72 h
MEASURED_ENDPOINT: EC50

Q: So what does the record say about EC50 for `Cc1ccc(S(=O)(=O)Nc2cc(-c3ccco3)ccc2C)cc1` ?
Result: < 0.5 µM

Q: Also, `Cc1ccc(-c2ccc(C#N)s2)cc1NS(=O)(=O)c1ccc2c(c1)OCO2` please.
Result: < 0.5 µM

Q: Also, `CC(=O)c1ccc(-c2ccc(C)c(NS(=O)(=O)c3ccc(C)cc3)c2)nc1` please.
Result: 1 to 10 µM

Q: Also, `Cc1ccc(S(=O)(=O)Nc2cc(-c3cc(C)cc(C)n3)ccc2C)cc1` please.
Result: 1 to 10 µM

Q: Also, `COc1cccnc1-c1ccc(C)c(NS(=O)(=O)c2ccc(C)cc2)c1` please.
Result: 1 to 10 µM

Q: Also, `Cc1ccc(S(=O)(=O)Nc2cc(-c3ncccc3C(F)(F)F)ccc2C)cc1` please.
Result: 1 to 10 µM

Q: Also, `Cc1ccc(S(=O)(=O)Nc2cc(-c3cccc(C)c3)ccc2C)cc1` please.
Result: 0.5 to 1 µM

Q: Also, `COc1cncc(-c2ccc(C)c(NS(=O)(=O)c3ccc(C)cc3)c2)c1` please.
Result: 1 to 10 µM

Q: Also, `Cc1ccc(S(=O)(=O)Nc2cc(-c3cc(C(F)(F)F)ccn3)ccc2C)cc1` please.
Result: 1 to 10 µM

Q: Also, `Cc1ccc(S(=O)(=O)Nc2cc(-c3ccc(F)cn3)ccc2C)cc1` please.
Result: < 0.5 µM

Q: Also, `Cc1ccc(S(=O)(=O)Nc2cc(-c3cccc(N(C)C)n3)ccc2C)cc1` please.
Result: 0.5 to 1 µM

Q: Also, `Cc1ccc(S(=O)(=O)Nc2cc(-c3cccc(C(F)(F)F)n3)ccc2C)cc1` please.
Result: 0.5 to 1 µM

Q: Also, `Cc1ccc(-c2ccc(C#N)cc2)cc1NS(=O)(=O)c1ccc(N(C)C)cc1` please.
Result: < 0.5 µM

Q: Also, `COc1cc(C)c(-c2ccc(C)c(NS(=O)(=O)c3ccc(C)cc3)c2)cn1` please.
Result: 1 to 10 µM

Q: Also, `Cc1ccc(-c2ccc(C#N)cc2)cc1NS(=O)(=O)c1ccc(N)c(F)c1` please.
Result: < 0.5 µM

Q: Also, `COc1ccc(S(=O)(=O)Nc2cc(-c3ccsc3C)ccc2C)cc1` please.
Result: < 0.5 µM

Q: Also, `C#Cc1ccc(-c2ccc(C)c(NS(=O)(=O)c3ccc(C)cc3)c2)cc1` please.
Result: 0.5 to 1 µM

Q: Also, `Cc1ccc(-c2ccc(C#N)cc2)cc1NS(=O)(=O)c1ccc([N+](=O)[O-])cc1` please.
Result: 1 to 10 µM

Q: Also, `COc1ccc(S(=O)(=O)Nc2cc(-n3cccc3)ccc2C)cc1` please.
Result: < 0.5 µM

Q: Also, `Cc1ccc(S(=O)(=O)Nc2cc(-c3sccc3C#N)ccc2C)cc1` please.
Result: 0.5 to 1 µM

Q: Also, `Cc1ccc(S(=O)(=O)Nc2cc(-c3cscc3C)ccc2C)cc1` please.
Result: < 0.5 µM
